Measured TGI, listed per entry for reference.
# Tested on: OVCAR-8 ovarian
# experiment: NCI tumour cell line growth inhibition, 48 h

{"columns": ["compound", "test target", "TGI"],
 "data": [
  ["Cc1ccc(-c2c3c(nn2-c2ccc(S(N)(=O)=O)cc2)-c2ccccc2C3)cc1", "OVCAR-8 ovarian", "> 100 µM"],
  ["O=C1c2ccccc2C(=O)c2c(O)c(NCCCNCCO)cc(O)c21", "OVCAR-8 ovarian", "23.7 µM"],
  ["O=c1sc2c(s1)-c1sc(=O)sc1SS2", "OVCAR-8 ovarian", "48.9 µM"],
  ["CSc1cc(-c2ccccn2)nc(-c2ccccn2)c1", "OVCAR-8 ovarian", "12.5 µM"],
  ["CCO[C@@]1(COCc2ccccc2)OC(=O)C[C@@H]1N1C(=O)OC[C@@H]1c1ccccc1", "OVCAR-8 ovarian", "> 100 µM"],
  ["CC(C)CCCC(C)[C@H]1CC[C@H]2[C@@H]3CC[C@H]4C[C@@H](CCC=C(c5cc(Cl)c(O)c(C(=O)OC(C)C)c5)c5cc(Cl)c(O)c(C(=O)OC(C)C)c5)CC[C@]4(C)[C@H]3CC[C@]12C (stereo partly drawn)", "OVCAR-8 ovarian", "> 50 µM"],
  ["O=C(CCC(=O)CC(O)(C(F)(F)F)C(F)(F)F)CC(O)(C(F)(F)F)C(F)(F)F", "OVCAR-8 ovarian", "> 100 µM"],
  ["Cc1cc(S(=O)(=O)/N=C/N(C)C)c(SC(=O)c2ccc(Cl)cc2)cc1Cl", "OVCAR-8 ovarian", "> 100 µM"],
  ["Cc1ccc(NC(=O)C2C(=O)N(c3ccc(C)c(C)c3)C(=O)/C2=N\\NC(N)=O)cc1C (stereo not drawn)", "OVCAR-8 ovarian", "> 100 µM"],
  ["CCCCCCCC(CC(=O)NC(CO)C(=O)NC(CO)CC(C)C)OC(=O)CC(CCCCCCC)OC(=O)CC(CCCCCCC)OC1OC(C)C(O)C(OC2OC(C)C(O)C(O)C2OC(C)=O)C1O (stereo not drawn)", "OVCAR-8 ovarian", "22.4 µM"],
  ["O=c1c2c3c(sc2nc2n1N=C(c1ccc(Cl)cc1)CS2)CCCC3", "OVCAR-8 ovarian", "> 100 µM"],
  ["C=CCN1C(=O)/C(=C/c2ccco2)N=C1SC1OC(COC(C)=O)C(OC(C)=O)C(OC(C)=O)C1OC(C)=O (stereo not drawn)", "OVCAR-8 ovarian", "> 100 µM"],
  ["COC1CC(OC2C(C)OC(OC3C(C)OC(OC4C(O)CC(O[C@H]5CC[C@@]6(C)C(=CC[C@]7(O)[C@@H]6C[C@@H](OC(C)=O)[C@@]6(C)[C@]7(O)CC[C@@]6(O)C(C)=O)C5)OC4C)CC3OC)CC2OC)OC(C)C1O (stereo partly drawn)", "OVCAR-8 ovarian", "> 12.5 µM"],
  ["Cc1ccc(C(NC(=O)c2ccccc2)c2ccc3cccnc3c2O)cc1 (stereo not drawn)", "OVCAR-8 ovarian", "25.1 µM"],
  ["COc1cccc(/C=N/NC(=S)NC2CC3CCC2C3)c1O (stereo not drawn)", "OVCAR-8 ovarian", "18.5 µM"],
  ["CCCC(C)n1c(C)nc2c1C(=O)c1ccccc1C2=O (stereo not drawn)", "OVCAR-8 ovarian", "> 100 µM"],
  ["CCOc1cc(Br)c(C(C)NC(=O)c2cccc(OC)c2)cc1OCC (stereo not drawn)", "OVCAR-8 ovarian", "> 100 µM"],
  ["COP(=O)(OC)C(NC(=O)C(F)(F)F)(c1ccccc1)C(F)(F)F (stereo not drawn)", "OVCAR-8 ovarian", "> 100 µM"]
]}

Origin of the recorded values: PubChem BioAssay (NCI)
